Molecular target: SST2 (Homo sapiens, UniProt P30874)
Construct: host or cells: PathHunter CHO-K1 SST2 cells
Sequence (P30874 whole entry): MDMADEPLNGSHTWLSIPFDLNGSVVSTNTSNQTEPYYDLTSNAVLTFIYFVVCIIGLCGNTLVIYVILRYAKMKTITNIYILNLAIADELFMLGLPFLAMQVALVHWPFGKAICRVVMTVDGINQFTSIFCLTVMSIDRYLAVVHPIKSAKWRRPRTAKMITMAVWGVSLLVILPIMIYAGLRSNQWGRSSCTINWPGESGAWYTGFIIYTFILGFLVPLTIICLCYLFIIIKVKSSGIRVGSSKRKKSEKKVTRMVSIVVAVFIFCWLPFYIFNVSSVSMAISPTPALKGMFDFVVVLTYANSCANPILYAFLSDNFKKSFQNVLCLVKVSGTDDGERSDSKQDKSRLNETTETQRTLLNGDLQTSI
Test: PathHunter CHO-K1 SST2 Internalization Assay
Assay type: cell-based
Conditions: PathHunter CHO-K1 SST2 cells; 90 min at 37 C; luminescence; read-out: Internalization EC50
pEC50: −log10 of the molar value.
# cutoff 8 applies to pEC50; >= gives met, < gives not met

INSERT INTO assay_data (mol_smiles, assay_system, assigned_category) VALUES
  ('CC[C@H](C)[C@@H]([C@@H](CC(=O)N1CCC[C@H]1[C@H](OC)[C@@H](C)C(=O)N[C@H](C)[C@@H](O)c1ccccc1)OC)N(C)C(=O)[C@@H](NC(=O)[C@H](C(C)C)N(C)C(=O)OCc1ccc(NC(=O)[C@H](CCCNC(N)=O)NC(=O)[C@@H](NC(=O)Cn2cc(CCOCCC(=O)NCCNc3ncc(-c4cc(C)cc(F)c4)c(N4CCC(N)CC4)c3-c3nc4cc(Cl)ccc4[nH]3)nn2)C(C)C)c(O[C@@H]2O[C@H](C(=O)N3CCNCC3)[C@@H](O)[C@H](O)[C@H]2O)c1)C(C)C', 'SST2 (Homo sapiens, UniProt P30874)', 'met'),
  ('CC[C@H](C)[C@@H]([C@@H](CC(=O)N1CCC[C@H]1[C@H](OC)[C@@H](C)C(=O)N[C@H](C)[C@@H](O)c1ccccc1)OC)N(C)C(=O)[C@@H](NC(=O)[C@H](C(C)C)N(C)C(=O)OCc1ccc(NC(=O)[C@H](CCCNC(N)=O)NC(=O)[C@@H](NC(=O)c2cc(NCCOCCOCCOCCC(=O)NCCNc3ncc(-c4cc(C)cc(F)c4)c(N4CCC(N)CC4)c3-c3nc4ccc(Cl)cc4[nH]3)cc(C(=O)OC)c2)C(C)C)cc1)C(C)C', 'SST2 (Homo sapiens, UniProt P30874)', 'met');

Check if pEC50 >= 8 (inclusive). Item: "CC[C@H](C)[C@@H]([C@@H](CC(=O)N1CCC[C@H]1[C@H](OC)[C@@H](C)C(=O)N[C@H](C)[C@@H](O)c1ccccc1)OC)N(C)C(=O)[C@@H](NC(=O)[C@H](C(C)C)N(C)C(=O)OCc1ccc(NC(=O)[C@H](CCCNC(N)=O)NC(=O)[C@@H](NC(=O)[C@H](CCC(=O)O)NC(=O)CCOCCOCCOCCOCCC(=O)NCCNc2ncc(-c3cc(C)cc(F)c3)c(N3CCC(N)CC3)c2-c2nc3ccc(Cl)cc3[nH]2)C(C)C)cc1C(=O)N1CC(N)C1)C(C)C"
met

Check if pEC50 >= 8 (inclusive). Item: "CC[C@H](C)[C@@H]([C@@H](CC(=O)N1CCC[C@H]1[C@H](OC)[C@@H](C)C(=O)N[C@H](C)[C@@H](O)c1ccccc1)OC)N(C)C(=O)[C@@H](NC(=O)[C@H](C(C)C)N(C)C(=O)OCc1ccc(NC(=O)[C@H](CCCNC(N)=O)NC(=O)[C@@H](NC(=O)CCOCCC(=O)NCCNc2ncc(-c3cc(C)cc(F)c3)c(N3CCC(N)CC3)c2-c2nc3c(F)c(F)ccc3[nH]2)C(C)C)c(O[C@@H]2O[C@H](C(=O)O)[C@@H](O)[C@H](O)[C@H]2O)c1)C(C)C"
not met

Check if pEC50 >= 8 (inclusive). Item: "CC[C@H](C)[C@@H]([C@@H](CC(=O)N1CCC[C@H]1[C@H](OC)[C@@H](C)C(=O)N[C@H](C)[C@@H](O)c1ccccc1)OC)N(C)C(=O)[C@@H](NC(=O)[C@H](C(C)C)N(C)C(=O)OCc1ccc(NC(=O)[C@H](CCCNC(N)=O)NC(=O)[C@@H](NC(=O)CCOCCOCCOCCOCCC(=O)NCCNc2ncc(-c3cc(C)cc(F)c3)c(N3CCC(N)CC3)c2-c2nc3ccc(Cl)cc3[nH]2)C(C)C)cc1C(=O)O)C(C)C"
met

* * *

Target: human somatostatin receptor subtype 2 (Homo sapiens)
Construct: expressed in transfected cells
Sequence (P30874 whole entry): as above
Test: Functional assay for SSTR2 agonists (HTRF cAMP)
Assay type: cell-based
Conditions: CHO-K1 cells stably expressing human SST2; NKH477-stimulated cAMP; 20 min at 37 C; read-out: hSST2 cAMP Avg EC50
*1 amine or outer side, *2 acyl side, *3 side chain or, on linkers, in order; H or OH if unused. Where a SMILES comes first, the peptide text is derived from it. [ ]: non-standard residue; d: D form. The star is where a group is joined. X4 = Cc1cc(F)cc(-c2cnc(NCCNC(=O)CCOCCC(=O)*)c(-c3nc4ccc(Cl)cc4[nH]3)c2N2CCC(N)CC2)c1; Dolaproine = CO[C@@H]([C@@H]1CCCN1)[C@@H](C)C(=O)O; Dil = CC[C@H](C)[C@H](NC)[C@@H](CC(=O)O)OC; PABC = O=C(OCc1ccc(N[*:1])cc1)[*:2]; X2 = C[C@@H](N*)[C@@H](O)c1ccccc1; Cit = NC(=O)NCCC[C@H](N)C(=O)O; NMeV = CN[C@H](C(=O)O)C(C)C; PEG1 = NCCOCCC(=O)O
measured endpoint: pEC50
One number for each entry, as −log10 of the molar value.

Your task in this section: give pEC50 for each listed record.
1. CC[C@H](C)[C@@H]([C@@H](CC(=O)N1CCC[C@H]1[C@H](OC)[C@@H](C)C(=O)N[C@H](C)[C@@H](O)c1ccccc1)OC)N(C)C(=O)[C@@H](NC(=O)[C@H](C(C)C)N(C)C(=O)OCc1ccc(NC(=O)[C@H](CCCNC(N)=O)NC(=O)[C@@H](NC(=O)[C@@H](CS(=O)(=O)O)NC(=O)CCOCCC(=O)NCCNc2ncc(-c3cc(C)cc(F)c3)c(N3CCC(N)CC3)c2-c2nc3ccc(Cl)cc3[nH]2)C(C)C)cc1C(=O)NCCN)C(C)C [Compound 28]
2. CC[C@H](C)[C@@H]([C@@H](CC(=O)N1CCC[C@H]1[C@H](OC)[C@@H](C)C(=O)N[C@H](C)[C@@H](O)c1ccccc1)OC)N(C)C(=O)[C@@H](NC(=O)[C@H](C(C)C)N(C)C(=O)OCc1ccc(NC(=O)[C@H](CCCNC(N)=O)NC(=O)[C@@H](NC(=O)CCOCCNC(=O)[C@H](CCC(=O)O)NC(=O)[C@H](CCC(N)=O)NC(=O)CCOCCC(=O)NCCNc2ncc(-c3cc(C)cc(F)c3)c(N3CCC(N)CC3)c2-c2nc3ccc(Cl)cc3[nH]2)C(C)C)cc1)C(C)C [Compound 191] (X4-QE[PEG1]V[Cit][PABC][NMeV]V[Dil][Dolaproine]-X2)

10.13
8.72

* * *

Molecular target: human somatostatin receptor subtype 2 (Homo sapiens)
Construct: expressed in transfected cells
Test: Functional assay for SSTR2 agonists (HTRF cAMP)
Type: cell-based
Settings: CHO-K1 cells stably expressing human SST2; NKH477-stimulated cAMP; 20 min at 37 C; read-out: hSST2 cAMP Avg EC50
Answer each item with its documented pEC50.
One number for each entry, as −log10 of the molar value.

INSERT INTO results (compound, value_observed) VALUES
  ('CC[C@H](C)[C@@H]([C@@H](CC(=O)N1CCC[C@H]1[C@H](OC)[C@@H](C)C(=O)N[C@H](C)[C@@H](O)c1ccccc1)OC)N(C)C(=O)[C@@H](NC(=O)[C@H](C(C)C)N(C)C(=O)OCc1ccc(NC(=O)[C@H](C)NC(=O)[C@@H](NC(=O)CCOCCC(=O)NCCNc2ncc(-c3cc(C)cc(F)c3)c(N3CCC(N)CC3)c2-c2cc3ccc(C#N)cc3[nH]2)C(C)C)c(O[C@@H]2O[C@H](C(=O)O)[C@@H](O)[C@H](O)[C@H]2O)c1)C(C)C [Compound 119]', 9.96);

Next, consider the following compound.
Using the record for CC[C@H](C)[C@@H]([C@@H](CC(=O)N1CCC[C@H]1[C@H](OC)[C@@H](C)C(=O)N[C@H](C)[C@@H](O)c1ccccc1)OC)N(C)C(=O)[C@@H](NC(=O)[C@H](C(C)C)N(C)C(=O)OCc1ccc(NC(=O)[C@H](CCCNC(N)=O)NC(=O)[C@@H](NC(=O)c2cc(NCCOCCC(=O)NCCNc3ncc(-c4cc(C)cc(F)c4)c(N4CCC(N)CC4)c3-c3nc4ccc(Cl)cc4[nH]3)cc(C(=O)NCCN(CC(=O)O)CC(=O)O)c2)C(C)C)cc1)C(C)C [Compound 189] , report its pEC50.
9.40
